system: giant foxtail (Setaria faberi); experiment: Test G Post-Emergence Protocol; type: in vivo; settings: Setaria faberi, post-emergence, 312 h, 250 g ai/ha, evaluated after 13 days, read-out: damage to plant, Foxtail, Giant (100=total damage to plant; 0=no damage to plant)
Endpoint: pest or weed control at 250 g/ha (%)
All answers are understood in %, so give the number only.

Query: State pest or weed control at 250 g/ha (giant foxtail (Setaria faberi)) of Cc1cc(C(F)(F)F)ccc1NC(=O)[C@H]1C(=O)N(C)C[C@@H]1c1ccc(C(F)(F)F)cc1 (racemic) .
Result: 0

Query: State pest or weed control at 250 g/ha (giant foxtail (Setaria faberi)) of CN1C[C@H](c2ccc(C(F)(F)F)cc2)[C@@H](C(=O)Nc2ccc(F)cc2S(C)(=O)=O)C1=O (racemic) .
Result: 70

Query: State pest or weed control at 250 g/ha (giant foxtail (Setaria faberi)) of CN1C[C@@H](c2ccc(C(F)(F)F)nc2)[C@H](C(=O)Nc2cccc(F)c2F)C1=O (racemic) .
Result: 60

Query: State pest or weed control at 250 g/ha (giant foxtail (Setaria faberi)) of CN1C[C@@H](c2cnc(Cl)c(F)c2)[C@H](C(=O)Nc2cccc(F)c2F)C1=O (racemic) .
Result: 70

Query: State pest or weed control at 250 g/ha (giant foxtail (Setaria faberi)) of CN1C[C@@H](c2ccc(C(F)(F)F)cc2)[C@H](C(=O)Nc2cnnc(Cl)c2Cl)C1=O (racemic) .
Result: 0

Query: State pest or weed control at 250 g/ha (giant foxtail (Setaria faberi)) of CCc1nnc(NC(=O)[C@@H]2C(=O)N(C)C[C@H]2c2ccc(C(F)(F)F)cc2)s1 (racemic) .
Result: 0

Query: State pest or weed control at 250 g/ha (giant foxtail (Setaria faberi)) of Cc1n[nH]cc1NC(=O)[C@@H]1C(=O)N(C)C[C@H]1c1ccc(C(F)(F)F)cc1 (racemic) .
Result: 20
